B1: RPS21 (parent)
chain: AEVSWEPGRREGCDICAGKAGCPI

variants of: B1; experiment: protein stability index of a GFP-peptide fusion (GPS, HEK-293T) (PSI 1-6); higher = more stable; conditions: c terminus: a fixed tail appended;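 also: lentivirally expressed fusions sorted by FACS into six bins by GFP to DsRed ratio, PSI derived from sequencing read proportions per bin multiplied by bin number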
protein stability index for assorted variants

# VARIANT NOTATION, protein stability index
rows = [
    ("I24T", 3.96),
    ("C22N", 2.96),
    ("R10H", 4.11),
    ("G18H", 2.97),
    ("E11P", 2.92),
    ("C16K", 3.86),
    ("C16W", 1.6),
    ("P23N", 2.62),
    ("G18D", 4.25),
    ("I15S", 4.14),
    ("R9I", 3.14),
    ("E6I", 2),
    ("G18N", 3.63),
    ("I15F", 2.08),
    ("S4C", 3.24),
    ("A20F", 3.1),
    ("E2M", 2.83),
    ("W5E", 4.64),
    ("D14K", 3.66),
    ("A1F", 1.94),
    ("A20S", 3.69),
    ("A1D", 3.94),
    ("G12K", 2.5),
    ("A20Y", 2.96),
    ("K19Y", 2.24),
    ("W5V", 4.44),
    ("W5K", 4.84),
    ("E2F", 1.23),
    ("V3C", 3.78),
    ("P23M", 1.48),
    ("G12P", 3.21),
    ("S4K", 3.77),
    ("C22W", 2.82),
    ("I15T", 3.83),
    ("G18C", 2.79),
    ("A1C", 2.9),
    ("E2S", 2.94),
    ("E11N", 2.55),
    ("C13H", 4.27),
    ("G21I", 2.67),
    ("R10A", 3.49),
    ("A1R", 3.51),
    ("C22E", 3.88),
    ("P7I", 2.97),
    ("C22R", 2.32),
    ("K19H", 2.13),
]
